Data provenance is ChEMBL document CHEMBL1208674.

# experimental details: Cytotoxicity against african green monkey Vero cells after 72 hrs by Cell titer Glo assay
# Type: cell-based
# test conditions: chlorocebus sabaeus
readout type: CC50 at 72 h

For orientation, consider the following solved cases.
[
  {
    "molecule": "Nc1cccc(/C=N/NC(=O)c2cnccn2)c1",
    "CC50 at 72 h": "> 30 µg/mL"
  },
  {
    "molecule": "O=C(N/N=C/c1ccc(O)cc1)c1cnccn1",
    "CC50 at 72 h": "> 30 µg/mL"
  },
  {
    "molecule": "COc1ccc(/C=N/NC(=O)c2cnccn2)cc1",
    "CC50 at 72 h": "> 30 µg/mL"
  },
  {
    "molecule": "COc1cc(/C=N/NC(=O)c2cnccn2)ccc1O",
    "CC50 at 72 h": "> 30 µg/mL"
  },
  {
    "molecule": "COc1ccc2nc(Cl)c(/C=N/NC(=O)c3cnccn3)cc2c1",
    "CC50 at 72 h": "5.37 µg/mL"
  }
]

Report CC50 at 72 h for each item below.
1. COc1ccc(/C(C)=N/NC(=O)c2cnccn2)cc1
2. O=C(N/N=C/c1ccccc1O)c1cnccn1
3. Cc1ccc2nc(Cl)c(/C=N/NC(=O)c3cnccn3)cc2c1
4. C/C(=N\NC(=O)c1cnccn1)c1ccc(Br)cc1
5. O=C(N/N=C/c1ccc(Cl)cc1)c1cnccn1
6. CCNC(=S)NNC(=O)c1cnccn1

1: > 30 µg/mL; 2: 11.4 µg/mL; 3: > 30 µg/mL; 4: > 30 µg/mL; 5: > 30 µg/mL; 6: 29.8 µg/mL

Report CC50 at 72 h for each item below.
1. O=C(N/N=C/c1cccc(O)c1)c1cnccn1
2. NNC(=O)c1cnccn1 [PYRAZINE CARBOXYLIC ACID HYDRAZIDE]

> 30 µg/mL
> 30 µg/mL
